system: U251 CNS; test: NCI tumour cell line growth inhibition, 48 h

COMPOUND	UNIT_LABEL	OPERATOR_SYMBOL	TGI
CCOc1ccc2nc(-c3cccc(OCC(=O)NC(C)C)c3)nc(Nc3ccc(-c4cn[nH]c4)cc3)c2c1	µM	=	2.15
CSc1nc(SC)c2c(C(N)=S)[nH]nc2n1	µM	=	46.1
N#CCSc1c(-c2ccccc2)c(=O)n(-c2ccccc2)c(=S)n1-c1ccccc1	µM	>	100
CC(C)N1CCC2(CC1)NNc1ncccc1-n1cccc12	µM	>	100
CCCCCCCC(=O)OCC(C[As](=O)(O)O)OC(=O)CCCCCCC (configuration not stated)	µM	=	28.2
Cn1c(N=[N+]=[N-])cc(=O)n(C)c1=O	µM	>	100
O=C(NC12CC3CC(CC(C3)C1)C2)C(=O)c1c[nH]c2ccc([N+](=O)[O-])cc12	µM	>	46.8
